assay: PK s.c. in healthy and adenine/high-phosphate-diet (uremic) rats; format: in vivo; conditions: male, Sprague-Dawley, rat, serum, sc, 10 mg/kg, 10 mg/kg s.c., Healthy
Recorded Metric: MRT (h)
Give bare numbers, in h.

-- ask Determine its reported MRT: COCCOCCO[C@@H]1[C@@H](OP(=O)(O)O)[C@H](OCCOCCOC)[C@@H](OP(=O)(O)O)[C@@H](OP(=O)(O)O)[C@H]1OP(=O)(O)O [(OEG2)2-IP4]
-- reply 1.1

====

experiment: PK s.c. in healthy and adenine/high-phosphate-diet (uremic) rats; format: in vivo; conditions: male, Sprague-Dawley, rat, serum, sc, 10 mg/kg, 10 mg/kg s.c., Healthy; read-out: AUC0-360 (converted)
Recorded Metric: AUC(0-t) (µM·h)
Give bare numbers, in µM·h.

-- ask Determine its reported AUC(0-t): COCCOCCO[C@@H]1[C@@H](OP(=O)(O)O)[C@H](OCCOCCOC)[C@@H](OP(=O)(O)O)[C@@H](OP(=O)(O)O)[C@H]1OP(=O)(O)O
-- reply 19.2
